- assay_system: Isocitrate lyase (Candida albicans, UniProt Q9P8Q7)
- Sequence (Q9P8Q7 whole entry): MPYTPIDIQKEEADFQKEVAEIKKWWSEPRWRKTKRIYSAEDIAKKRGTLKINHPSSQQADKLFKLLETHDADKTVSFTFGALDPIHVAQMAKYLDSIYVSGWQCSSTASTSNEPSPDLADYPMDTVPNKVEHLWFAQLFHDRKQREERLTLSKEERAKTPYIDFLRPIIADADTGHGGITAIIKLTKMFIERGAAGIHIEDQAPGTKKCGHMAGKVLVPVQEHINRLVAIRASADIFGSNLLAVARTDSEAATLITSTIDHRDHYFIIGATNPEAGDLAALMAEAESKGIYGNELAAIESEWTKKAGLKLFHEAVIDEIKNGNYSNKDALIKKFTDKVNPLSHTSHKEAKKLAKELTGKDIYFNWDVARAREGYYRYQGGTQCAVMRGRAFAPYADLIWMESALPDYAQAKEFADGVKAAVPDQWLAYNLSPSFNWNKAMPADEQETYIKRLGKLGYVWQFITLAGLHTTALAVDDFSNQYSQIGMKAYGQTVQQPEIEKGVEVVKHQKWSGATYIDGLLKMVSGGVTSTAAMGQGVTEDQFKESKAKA
- assay_text: Inhibition of Candida albicans isocitrate lyase
pIC50: −log10 of the molar value.
The compounds listed here are annotated with their pIC50.

# compound, inequality_sign, pIC50
rows = [
    ("CO[C@@H]1C=C(CC[C@H]2/C(=C/OS(=O)(=O)[O-])CC[C@H]3[C@]2(C)CC[C@H]2C(C)(C)CCC[C@]32C)C(=O)O1.[Na+]", "=", 4.19),
    ("C=C1CC[C@H]2C(C)(C)CCC[C@]2(C)[C@H]1C[C@@H](OS(=O)(=O)[O-])[C@H](C)CCC/C(C)=C/Cc1cc(O)ccc1O.[Na+]", "=", 4.35),
    ("CO[C@H]1C=C(CC[C@H]2/C(=C/OS(=O)(=O)[O-])CC[C@H]3[C@]2(C)CC[C@H]2C(C)(C)CCC[C@]32C)C(=O)O1.[Na+]", "=", 3.78),
    ("CC1(C)CCC[C@]2(C)[C@H]3CC/C(=C\\OS(=O)(=O)[O-])[C@H](CCc4ccoc4)[C@@]3(C)CC[C@@H]12.C[N+](C)=C(N)N", "=", 4.77),
    ("CC1=CC[C@H]2C(C)(C)CCC[C@]2(C)[C@H]1C/C=C(/C)CCC/C(C)=C/Cc1cc(O)ccc1O", "<", 3.70),
    ("CC1=CC[C@H]2C(C)(C)CCC[C@]2(C)[C@H]1C[C@@H](OS(=O)(=O)[O-])[C@H](C)CCC/C(C)=C/Cc1cc(O)ccc1O.[Na+] [HALISULFATE 1]", "=", 4.72),
    ("CC1=CC[C@H]2C(C)(C)CCC[C@]2(C)[C@H]1C/C=C(\\C)CCC/C(C)=C/Cc1cc(O)ccc1O", "<", 3.70),
    ("CC1(C)CCC[C@]2(C)[C@H]3CC/C(=C\\OS(=O)(=O)[O-])[C@H](CCC4=CC(=O)OC4)[C@@]3(C)CC[C@@H]12.[Na+]", "=", 3.82),
    ("CO[C@H]1C=C(CC[C@H]2/C(=C/OS(=O)(=O)[O-])CC[C@H]3[C@]2(C)CC[C@H]2C(C)(C)CCC[C@]32C)[C@@H](OC)O1.[Na+]", "=", 4.06),
    ("CC1(C)CCC[C@]2(C)[C@H]3CC/C(=C\\OS(=O)(=O)[O-])[C@H](CCC4=CCNC4=O)[C@@]3(C)CC[C@@H]12.[Na+]", "=", 4.21),
    ("CO[C@@H]1O[C@H](OC)[C@](O)(CC[C@H]2/C(=C/OS(=O)(=O)[O-])CC[C@H]3[C@]2(C)CC[C@H]2C(C)(C)CCC[C@]32C)[C@H]1O.[Na+]", "=", 4.12),
    ("CC1=CCC[C@@H](C)[C@]1(C)CC/C(C)=C/CCC(CCCc1ccoc1)COS(=O)(=O)[O-].[Na+] (some centres not stated) [HALISULFATE 2]", "=", 4.62),
]

====

- System: Salmonella typhimurium
- assay_text: Antimicrobial activity against Salmonella Typhimurium ATCC 14028
- Type: functional, Salmonella enterica subsp. enterica serovar Typhimurium
- measurement_parameters: Salmonella enterica
readout_label: MIC

# compound, recorded_measurement
measured = [
    ("CO[C@@H]1O[C@H](OC)[C@](O)(CC[C@H]2/C(=C/OS(=O)(=O)[O-])CC[C@H]3[C@]2(C)CC[C@H]2C(C)(C)CCC[C@]32C)[C@H]1O.[Na+]", "> 100 µg/mL"),
    ("CC1(C)CCC[C@]2(C)[C@H]3CC/C(=C\\OS(=O)(=O)[O-])[C@H](CCc4ccoc4)[C@@]3(C)CC[C@@H]12.C[N+](C)=C(N)N [SUVANINE]", "50 µg/mL"),
    ("CC1=CC[C@H]2C(C)(C)CCC[C@]2(C)[C@H]1C/C=C(\\C)CCC/C(C)=C/Cc1cc(O)ccc1O", "> 100 µg/mL"),
]
